The origin of these recorded values is patent US9096593B2.

- target desc: Fms kinase (Homo sapiens (Human), UniProt P07333)
- Sequence (P07333 20-972): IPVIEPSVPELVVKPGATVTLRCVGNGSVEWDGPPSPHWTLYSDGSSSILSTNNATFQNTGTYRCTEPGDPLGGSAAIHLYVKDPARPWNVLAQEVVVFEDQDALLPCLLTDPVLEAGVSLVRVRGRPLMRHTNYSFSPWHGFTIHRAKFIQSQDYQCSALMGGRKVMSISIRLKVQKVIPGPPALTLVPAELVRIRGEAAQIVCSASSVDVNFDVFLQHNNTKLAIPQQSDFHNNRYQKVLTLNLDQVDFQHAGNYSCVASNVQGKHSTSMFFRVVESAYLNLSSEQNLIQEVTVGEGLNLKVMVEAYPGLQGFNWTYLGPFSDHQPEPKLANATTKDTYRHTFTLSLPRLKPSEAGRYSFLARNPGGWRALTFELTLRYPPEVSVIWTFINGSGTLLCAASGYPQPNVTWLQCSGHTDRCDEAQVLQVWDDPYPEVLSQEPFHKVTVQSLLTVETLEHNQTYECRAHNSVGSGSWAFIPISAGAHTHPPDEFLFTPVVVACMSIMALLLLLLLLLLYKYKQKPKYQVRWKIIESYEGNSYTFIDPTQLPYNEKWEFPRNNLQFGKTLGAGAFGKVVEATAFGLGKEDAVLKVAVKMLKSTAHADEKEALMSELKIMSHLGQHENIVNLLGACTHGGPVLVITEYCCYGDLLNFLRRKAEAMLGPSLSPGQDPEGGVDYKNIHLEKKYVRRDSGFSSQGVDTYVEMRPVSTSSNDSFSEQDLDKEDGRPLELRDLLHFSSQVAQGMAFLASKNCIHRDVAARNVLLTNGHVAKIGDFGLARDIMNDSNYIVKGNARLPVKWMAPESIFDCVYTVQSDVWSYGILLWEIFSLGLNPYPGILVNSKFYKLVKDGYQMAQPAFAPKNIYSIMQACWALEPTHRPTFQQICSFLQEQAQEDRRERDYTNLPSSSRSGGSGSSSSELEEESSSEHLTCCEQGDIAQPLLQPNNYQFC
- assay explanation: Fms kinase biochemical activity assay (AlphaScreen, biotin-(E4Y)10 phosphorylation)
- test context: Kit IC50/Fms IC50, biochemical
experimental endpoint: Biochemical activity selectivity (Kit IC50/Fms IC50)

molecule=Cc1cnc2[nH]cc(Cc3ccc(NCc4cnccc4C(F)(F)F)nc3)c2c1 reported_measurement=<20
molecule=Cc1cc(CNc2ccc(Cc3c[nH]c4ncc(Cl)cc34)c(F)n2)ccn1 reported_measurement=>20
molecule=COc1cnc2[nH]cc(Cc3cnc(NCc4ccc(C(F)(F)F)nc4)c(F)c3)c2c1 reported_measurement=<20

Now, please, on to the next compound.
Annotate the compound "FC(F)(F)c1ccncc1CNc1ccc(Cc2c[nH]c3ncc(Cl)cc23)cn1" with its measured Biochemical activity selectivity (Kit IC50/Fms IC50). <20

* * *

- target desc: CYP2C19 (Homo sapiens (Human))
- Sequence (P33261 whole entry): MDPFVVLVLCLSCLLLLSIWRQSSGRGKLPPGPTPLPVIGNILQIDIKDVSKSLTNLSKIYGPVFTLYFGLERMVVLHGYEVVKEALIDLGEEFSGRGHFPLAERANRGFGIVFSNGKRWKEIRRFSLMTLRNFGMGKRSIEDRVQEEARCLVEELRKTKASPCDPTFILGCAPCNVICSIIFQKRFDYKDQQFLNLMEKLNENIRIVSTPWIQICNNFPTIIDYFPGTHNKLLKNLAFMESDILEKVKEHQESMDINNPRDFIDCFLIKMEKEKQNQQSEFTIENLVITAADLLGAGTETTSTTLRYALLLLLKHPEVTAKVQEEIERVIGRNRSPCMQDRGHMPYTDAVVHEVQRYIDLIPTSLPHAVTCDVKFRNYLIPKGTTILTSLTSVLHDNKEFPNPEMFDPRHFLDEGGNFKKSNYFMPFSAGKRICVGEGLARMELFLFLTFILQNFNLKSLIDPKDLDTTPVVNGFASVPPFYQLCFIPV
- assay explanation: CYP enzyme inhibition, fluorescent substrate
- test context: read-out: Cyp IC50 (μM) 2C19
Below, each entry is listed with its recorded IC50.

Past entries and their recorded results:
molecule=Cc1cnc2[nH]cc(Cc3ccc(NCc4ccnc(C)c4)nc3F)c2c1 experimental_endpoint=IC50 reported_measurement="< 5 µM"
molecule=Cc1cc(CNc2ccc(Cc3c[nH]c4ncc(Cl)cc34)c(F)n2)ccn1 experimental_endpoint=IC50 reported_measurement="< 5 µM"
molecule=Cc1cnc2[nH]cc(Cc3cnc(NCc4cccc(N5CCCC5)n4)nc3)c2c1 experimental_endpoint=IC50 reported_measurement="< 5 µM"

Give IC50 only, for "Clc1cnc2[nH]cc(Cc3ccc(NCc4ccc(Cl)nc4)nc3)c2c1" , using CYP2C19 (Homo sapiens (Human)) data. 5 to 10 µM

* * *

# Lookup of reported IC50 keyed by entry
- target desc: BCR-FMS/BaF3 cells (Homo sapiens, UniProt P07333)
- assay explanation: BCR-FMS/BaF3 cell proliferation assay (ATPlite)
- Format: cell-based
- test context: read-out: BCR/BaF3 (IC50 μM) Fms; BCR-FMS/BaF3 cells

molecule=COc1cnc2[nH]cc(Cc3cnc(NCc4ccc(C(F)(F)F)nc4)c(F)c3)c2c1 experimental_endpoint=IC50 reported_measurement="< 0.1 µM"
molecule=Cc1cnc2[nH]cc(Cc3cnc(NCc4cccc(N5CCCC5)n4)nc3)c2c1 experimental_endpoint=IC50 reported_measurement="< 0.1 µM"
molecule=Cc1cnc2[nH]cc(Cc3cnc(NCc4cccc(N5CCOCC5)n4)nc3)c2c1 experimental_endpoint=IC50 reported_measurement="> 0.1 µM"

# context switch: different molecule, same IC50
Output measured IC50 for this item: "Fc1ccc(CNc2ccc(Cc3c[nH]c4ncc(Cl)cc34)cn2)cn1" < 0.1 µM

* * *

- target desc: BCR-FMS/BaF3 cells (Homo sapiens)
- assay explanation: BCR-FMS/BaF3 cell proliferation assay (ATPlite)
- Format: cell-based
- test context: read-out: BCR/BaF3 (IC50 μM) Fms; BCR-FMS/BaF3 cells
Measured IC50, listed per entry.

A selection of reference data follows.
molecule=COc1ccc(CNc2ncc(Cc3c[nH]c4ncc(C)cc34)cn2)cn1 experimental_endpoint=IC50 reported_measurement="< 0.1 µM"
molecule=COc1ccnc2[nH]cc(Cc3ccc(NCc4ccc(Cl)cc4)nc3F)c12 experimental_endpoint=IC50 reported_measurement="< 0.1 µM"
molecule=Cc1cnc2[nH]cc(Cc3ccc(NCc4cnccc4C(F)(F)F)nc3F)c2c1 experimental_endpoint=IC50 reported_measurement="< 0.1 µM"
molecule=COc1ccc(CNc2ccc(Cc3c[nH]c4ncc(C)cc34)c(F)n2)cn1 experimental_endpoint=IC50 reported_measurement="< 0.1 µM"

State, in one line, measured IC50 of "COc1ccc(CNc2ncc(Cc3c[nH]c4ncc(C)cc34)cc2F)cn1" < 0.1 µM

Entry "COc1cc(CNc2ccc(Cc3c[nH]c4ncc(C)cc34)c(F)n2)c(F)cn1" needs its IC50 filled in; supply it. > 0.1 µM

* * *

Listed here: items and their measured BCR/BaF3 selectivity (Kit IC50/Fms IC50).
- target desc: BCR-FMS/BaF3 cells (Homo sapiens)
- assay explanation: BCR-FMS/BaF3 cell proliferation assay (ATPlite)
- Type: cell-based
- test context: Kit IC50/Fms IC50, BCR-KIT/BaF3 vs BCR-FMS/BaF3 cells

Completed entries (count: 3):
molecule=Cc1cnc2[nH]cc(Cc3cnc(NCc4cccc(C)n4)nc3)c2c1 experimental_endpoint="BCR/BaF3 selectivity (Kit IC50/Fms IC50)" reported_measurement=<20
molecule=Cc1cnc2[nH]cc(Cc3ccc(NCc4cnccc4C(F)(F)F)nc3)c2c1 experimental_endpoint="BCR/BaF3 selectivity (Kit IC50/Fms IC50)" reported_measurement=>20
molecule=COc1cnc2[nH]cc(Cc3ccc(NCc4ccc(OC)nc4)nc3F)c2c1 experimental_endpoint="BCR/BaF3 selectivity (Kit IC50/Fms IC50)" reported_measurement=>20

Specify the recorded BCR/BaF3 selectivity (Kit IC50/Fms IC50) for "COc1ncccc1CNc1ccc(Cc2c[nH]c3ncc(C)cc23)c(F)n1" , system: BCR-FMS/BaF3 cells (Homo sapiens). >20

Give BCR/BaF3 selectivity (Kit IC50/Fms IC50) only, for "COc1ncc(F)cc1CNc1ncc(Cc2c[nH]c3ncc(Cl)cc23)cn1" , using BCR-FMS/BaF3 cells (Homo sapiens) data. >20

* * *

- target desc: CYP1A2 (Homo sapiens (Human))
- Sequence (P05177 whole entry): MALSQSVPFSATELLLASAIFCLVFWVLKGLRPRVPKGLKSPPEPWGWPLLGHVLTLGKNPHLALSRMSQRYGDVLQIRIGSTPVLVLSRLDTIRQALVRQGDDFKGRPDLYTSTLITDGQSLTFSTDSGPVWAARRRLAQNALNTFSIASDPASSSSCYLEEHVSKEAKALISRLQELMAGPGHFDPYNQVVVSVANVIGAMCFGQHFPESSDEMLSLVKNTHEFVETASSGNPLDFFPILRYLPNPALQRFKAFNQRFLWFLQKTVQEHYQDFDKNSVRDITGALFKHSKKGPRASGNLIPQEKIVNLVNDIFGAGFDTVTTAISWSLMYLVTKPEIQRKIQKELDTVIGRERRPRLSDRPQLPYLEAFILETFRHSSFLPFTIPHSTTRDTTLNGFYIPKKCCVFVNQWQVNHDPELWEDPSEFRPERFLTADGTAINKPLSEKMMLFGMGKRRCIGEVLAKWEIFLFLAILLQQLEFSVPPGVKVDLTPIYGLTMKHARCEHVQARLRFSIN
- assay explanation: CYP enzyme inhibition, fluorescent substrate
- test context: human, CYP1A2 enzyme (BD Biosciences), 15 min
pIC50: −log10 of the molar value.
experimental endpoint: pIC50

Quickly give me recorded pIC50 for "Cc1cnc2[nH]cc(Cc3cnc(NCc4ccc(Cl)nc4)nc3)c2c1" < 5.00

* * *

- target desc: CYP3A4(BQ) (Homo sapiens (Human), UniProt P08684)
- Sequence (P08684 whole entry): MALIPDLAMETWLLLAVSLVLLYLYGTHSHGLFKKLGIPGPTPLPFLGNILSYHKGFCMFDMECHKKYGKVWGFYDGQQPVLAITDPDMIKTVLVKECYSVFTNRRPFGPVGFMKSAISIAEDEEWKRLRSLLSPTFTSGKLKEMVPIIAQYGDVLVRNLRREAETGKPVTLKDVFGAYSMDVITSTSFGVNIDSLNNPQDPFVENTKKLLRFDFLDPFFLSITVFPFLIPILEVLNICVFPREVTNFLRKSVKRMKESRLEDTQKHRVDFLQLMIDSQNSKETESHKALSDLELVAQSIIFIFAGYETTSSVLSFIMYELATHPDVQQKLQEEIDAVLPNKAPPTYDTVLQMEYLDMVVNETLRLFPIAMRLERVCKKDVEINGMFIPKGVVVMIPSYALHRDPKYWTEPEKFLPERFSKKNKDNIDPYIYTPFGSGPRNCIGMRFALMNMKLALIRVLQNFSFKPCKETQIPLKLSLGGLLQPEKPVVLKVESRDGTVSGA
- assay explanation: CYP enzyme inhibition, fluorescent substrate
- test context: read-out: Cyp IC50 (μM) 3A4(BQ); BQ substrate
experimental endpoint: IC50

Observe how each entry below is paired with its result.
molecule=COc1cnc2[nH]cc(Cc3ccc(NCc4cncc(F)c4)nc3F)c2c1 target_desc="CYP3A4(BQ) (Homo sapiens (Human), UniProt P08684)" reported_measurement="< 5 µM"
molecule=COc1ncccc1CNc1ncc(Cc2c[nH]c3ncc(C)cc23)cn1 target_desc="CYP3A4(BQ) (Homo sapiens (Human), UniProt P08684)" reported_measurement="> 10 µM"
molecule=Cn1cc(F)cc(CNc2ncc(Cc3c[nH]c4ncc(Cl)cc34)cn2)c1=O target_desc="CYP3A4(BQ) (Homo sapiens (Human), UniProt P08684)" reported_measurement="> 10 µM"

Give reported IC50 value for "Cc1cnc2[nH]cc(Cc3cnc(NCc4ccc(C(F)(F)F)nc4)c(F)c3)c2c1" > 10 µM

* * *

- target desc: Fms kinase (Homo sapiens (Human), UniProt P07333)
- assay explanation: Fms kinase biochemical activity assay (AlphaScreen, biotin-(E4Y)10 phosphorylation)
- test context: Kit IC50/Fms IC50, biochemical
experimental endpoint: Biochemical activity selectivity (Kit IC50/Fms IC50)

Name the recorded Biochemical activity selectivity (Kit IC50/Fms IC50) of the item "Fc1cncc(CNc2ncc(Cc3c[nH]c4ncc(Cl)cc34)cn2)c1" in your answer. >20

Give the measured Biochemical activity selectivity (Kit IC50/Fms IC50) for "CCS(=O)(=O)Nc1cc(F)cc(CNc2ccc(Cc3c[nH]c4ncc(C)cc34)c(F)n2)c1" <20

Given "COc1ncccc1CNc1ccc(Cc2c[nH]c3ncccc23)c(F)n1" , respond with its Biochemical activity selectivity (Kit IC50/Fms IC50). >20

Indicate the recorded Biochemical activity selectivity (Kit IC50/Fms IC50) value for this compound: "COc1cccc(CNc2ncc(Cc3c[nH]c4ncc(Cl)cc34)s2)n1" <20

Please report Biochemical activity selectivity (Kit IC50/Fms IC50) for the following compound: "Cc1cnc2[nH]cc(Cc3ccc(NCc4cccnc4F)nc3F)c2c1" >20

* * *

- target desc: CYP2C9 (Homo sapiens (Human))
- Sequence (P11712 whole entry): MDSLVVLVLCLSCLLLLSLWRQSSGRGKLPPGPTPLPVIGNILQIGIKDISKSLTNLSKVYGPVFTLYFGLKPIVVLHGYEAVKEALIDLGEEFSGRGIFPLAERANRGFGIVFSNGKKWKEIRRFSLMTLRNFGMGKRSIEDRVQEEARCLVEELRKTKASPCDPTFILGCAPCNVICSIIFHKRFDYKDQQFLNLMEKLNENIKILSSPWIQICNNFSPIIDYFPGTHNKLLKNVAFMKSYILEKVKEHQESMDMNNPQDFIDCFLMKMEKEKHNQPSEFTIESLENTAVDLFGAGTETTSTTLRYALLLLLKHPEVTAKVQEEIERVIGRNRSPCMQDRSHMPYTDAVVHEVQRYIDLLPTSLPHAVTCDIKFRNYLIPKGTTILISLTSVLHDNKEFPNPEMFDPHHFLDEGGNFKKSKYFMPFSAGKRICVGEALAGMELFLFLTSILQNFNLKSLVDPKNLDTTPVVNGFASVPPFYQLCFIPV
- assay explanation: CYP enzyme inhibition, fluorescent substrate
- test context: read-out: Cyp IC50 (μM) 2C9
Reported IC50 by item:

Use the examples below as a reference point.
molecule="Clc1cnc2[nH]cc(Cc3ccc(NCc4ccc(Cl)nc4)nc3)c2c1 [Compound P-2003]" reported_measurement="< 5 µM"
molecule="COc1cnc2[nH]cc(Cc3ccc(NCc4ccc(OC)nc4)nc3F)c2c1 [Compound P-2030]" reported_measurement="< 5 µM"
molecule="COc1ncc(CNc2ccc(Cc3c[nH]c4ncc(Cl)cc34)c(F)n2)cc1F [Compound P-2165]" reported_measurement="> 10 µM"
molecule="COc1cnc2[nH]cc(Cc3ccc(NCc4cncc(F)c4)nc3F)c2c1 [Compound P-2028]" reported_measurement="< 5 µM"
molecule="Cc1cnc2[nH]cc(Cc3ccc(NCc4ccc(Cl)nc4)nc3F)c2c1 [Compound P-2088]" reported_measurement="< 5 µM"

Continue with the next molecule.
State, in one line, measured IC50 of COc1ncc(F)cc1CNc1ccc(Cc2c[nH]c3ncc(NC(C)=O)cc23)c(F)n1 [Compound P-1669] < 5 µM
